System: Rho-A (Homo sapiens)
Sequence (P61586 1-190): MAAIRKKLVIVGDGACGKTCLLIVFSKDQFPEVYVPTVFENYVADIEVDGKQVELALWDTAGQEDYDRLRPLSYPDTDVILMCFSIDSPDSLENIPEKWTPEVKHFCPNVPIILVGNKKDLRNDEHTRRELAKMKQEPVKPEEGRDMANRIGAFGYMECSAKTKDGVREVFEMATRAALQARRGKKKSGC
Assay: Ras GTP binding domain inhibition assay (Cy3-GTP/Cy5-GTP competition)
Experimental context: without SOS, read-out: Rho-A: % inh.
Readout kind: inhibition at 20 µM

CO[C@H]1C[C@@H](Nc2nc(-c3nccn3C)nc3sc(C(=O)N4CCOCC4)c(-c4ccccc4)c23)C1 [drawing 1057] :: 51 to 75%

So what does the record say about inhibition at 20 µM for O=C(c1nc(-c2ccccn2)nc(O)c1O)N1CCc2ccccc2C1 [drawing 967] ?
76 to 100%

Could you tell me which inhibition at 20 µM is on file for Cc1c(-c2ccn(C)n2)sc2nc(-c3nccn3C)nc(NCCCC(=O)N(C)C)c12 [drawing 1052] ?
76 to 100%

Give the measured inhibition at 20 µM of O=C(c1nc(-c2ccccn2)nc(O)c1O)N1CCOCC1 [drawing 935] .
26 to 50%

###

Tested on: KRas G12C mutant
Assay: Ras GTP binding domain inhibition assay (Cy3-GTP/Cy5-GTP competition)
Parameters: species or system human
Experimental context: 20 μM; without SOS
Readout kind: KRas G12C mutant: % inh.

COc1ccc(Oc2nc(-c3ccccn3)nc(O)c2OC)cc1 [drawing 815] :: D (76-100% inhibition)
COc1nscc1-c1sc2nc(-c3nccn3C)nc(N3CCC(OC)C3)c2c1-c1ccccc1.Cl (stereo not drawn) :: B (26-50% inhibition)
COCCNc1nc(-c2nccn2C)nc2sc(-c3cc(OC)ccc3Cl)c(-c3ccc(OC)cc3)c12 [drawing 877] :: A (1-25% inhibition)
COCCc1ccc(Oc2nc(-c3ccccn3)nc(O)c2OC)cc1 [drawing 814] :: A (1-25% inhibition)
COCCCNc1nc(-c2nccn2C)nc2sc(-c3ccn(C)n3)c(-c3ccc(OC)cc3)c12 [drawing 870] :: 0 (0% inhibition)

I would be grateful if you could share the reported KRas G12C mutant: % inh. for CC(C)CNC(=O)c1nc(-c2ccccn2)nc(O)c1O [drawing 811] .
D (76-100% inhibition)

Recorded KRas G12C mutant: % inh. for O=C(c1nc(-c2ccccn2)nc(O)c1O)N1CCOCC1 [drawing 800] , please?
B (26-50% inhibition)

Please look up its KRas G12C mutant: % inh.: O=C(c1nc(-c2ccccn2)nc(O)c1O)N1CCCC1 [drawing 831]
B (26-50% inhibition)

###

System: KRas G12C mutant
Assay: Ras GTP binding domain inhibition assay (Cy3-GTP/Cy5-GTP competition)
Design: species or system human
Experimental context: 20 μM; with SOS (Table 7A)
Readout kind: KRas G12C mutant + SOS: % inh.

CO[C@H]1C[C@@H](Nc2nc(-c3nccn3C)nc3sc(-c4ccn(C)n4)c(C)c23)C1 [drawing 914] :: C (51-75% inhibition)
CO[C@H]1CC[C@@H](Nc2nc(-c3ncc[nH]3)nc3sc(-c4ccn(C)n4)c(-c4ccccc4)c23)C1 [drawing 911] :: C (51-75% inhibition)
COC1CCN(c2nc(-c3nccn3C)nc3sc(-c4cccc(O)c4F)c(-c4ccccc4)c23)C1 (stereo not shown) [drawing 890] :: C (51-75% inhibition)
Cc1c(-c2ccn(C)n2)sc2nc(-c3nccn3C)nc(NCCCC(=O)N(C)C)c12 [drawing 917] :: C (51-75% inhibition)
CO[C@H]1CC[C@@H](Nc2nc(-c3nccn3C)nc3sc(-c4ccn(C)n4)c(C)c23)C1 [drawing 915] :: D (76-100% inhibition)

Dear colleague, I am looking for the recorded KRas G12C mutant + SOS: % inh. of the following compound: COc1c(O)nc(-c2ccccn2)nc1Oc1ccc(C(=O)N(C)C)cc1 [drawing 879]
A (1-25% inhibition)

Report KRas G12C mutant + SOS: % inh. for CO[C@H]1CC[C@@H](Nc2nc(-c3nccn3C)nc3sc(C(=O)N4CCOCC4)c(-c4ccccc4)c23)C1 [drawing 927] please.
C (51-75% inhibition)

Entry COc1nc(-c2ccccn2)nc2c(-c3ccccn3)csc12 [drawing 913] has what KRas G12C mutant + SOS: % inh.?
A (1-25% inhibition)

What does the record list as KRas G12C mutant + SOS: % inh. for CO[C@H]1C[C@@H](Nc2nc(-c3nccn3C)nc3sc(C(=O)N4CCOCC4)c(-c4ccccc4)c23)C1 [drawing 922] ?
C (51-75% inhibition)

Value lookup for KRas G12C mutant + SOS: % inh.; key = `CO[C@H]1C[C@@H](Nc2nc(-c3nccn3C)nc3sc(-c4ccn(C)n4)c(-c4ccccc4)c23)C1.Cl`
D (76-100% inhibition)

// query KRas G12C mutant + SOS: % inh. value for entry COC1CCC(Nc2nc(-c3nccn3C)nc3sc(-c4cccc5[nH]ncc45)c(C)c23)C1 (stereo not shown) [drawing 895]
D (76-100% inhibition)

For the compound COC1CCC(Nc2nc(-c3nccn3C)nc3sc(-c4cccc(O)c4F)c(-c4ccccc4)c23)C1 (stereo not shown) [drawing 885] , what KRas G12C mutant + SOS: % inh. is on record?
C (51-75% inhibition)

###

System: KRas G12C mutant
Assay: Ras GTP binding domain inhibition assay (Cy3-GTP/Cy5-GTP competition)
Set-up: species or system human
Experimental context: 20 μM; with SOS
Readout kind: KRas G12C mutant + SOS: % inh.

O=C(NCc1ccccc1)c1nc(-c2ccccn2)nc(O)c1O [drawing 821] :: C (51-75% inhibition)
COC1CCN(c2nc(-c3nccn3C)nc3sc(-c4ccc(N)nc4C)c(-c4ccccc4)c23)C1.Cl (stereo not drawn) :: A (1-25% inhibition)
Cn1ccnc1-c1nc(O)c(O)c(C(=O)N2CCCC2)n1 [drawing 828] :: A (1-25% inhibition)
COc1ccc(Oc2nc(-c3ccccn3)nc(O)c2OC)cc1 [drawing 815] :: C (51-75% inhibition)
COCC(C)Nc1nc(-c2nccn2C)nc2sc(-c3ccn(C)n3)c(-c3ccccc3)c12 (stereo not drawn) [drawing 864] :: C (51-75% inhibition)

# input molecule: COc1c(O)nc(-c2ccccn2)nc1Oc1cccnc1 [drawing 802] ; wanted: its KRas G12C mutant + SOS: % inh.
C (51-75% inhibition)

Recorded KRas G12C mutant + SOS: % inh. of COc1c(O)nc(-c2ccccn2)nc1Oc1cnn(C)c1 [drawing 803] , please.
C (51-75% inhibition)

###

System: K-Ras (Q61H) (Homo sapiens, UniProt P01116, Q61H)
Sequence (P01116 1-188 isoform P01116-2 Q61H): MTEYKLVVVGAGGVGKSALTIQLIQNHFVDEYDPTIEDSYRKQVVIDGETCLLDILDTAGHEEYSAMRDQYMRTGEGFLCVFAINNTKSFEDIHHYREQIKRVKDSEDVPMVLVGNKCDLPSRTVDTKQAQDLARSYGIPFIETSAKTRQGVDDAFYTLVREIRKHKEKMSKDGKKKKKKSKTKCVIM
Assay: MicroScale Thermophoresis (MST), GTP affinity
Assay type: binding
Excerpt: As disclosed in International Application No. PCT/US2018/038613 and U.S. patent application Ser. No. 16/013,872, the affinity of GTP for the GTP binding domain of K-Ras utilizing a Scintillation Proximity Assay (SPA) and MicroScale Thermophoresis (MST) has been measured. These methods were not available when Wittinghofer and colleagues undertook their studies. […]
Readout kind: Kd
Remember to follow the number with its unit.

Consider the molecule shown here: `Nc1nc2c(ncn2[C@@H]2O[C@H](COP(=O)(O)OP(=O)(O)OP(=O)(O)O)[C@@H](O)[C@H]2O)c(=O)[nH]1` What is its recorded Kd?
157 nM

###

Test system: KRas Q61H mutant
Assay: Ras GTP binding domain inhibition assay (Cy3-GTP/Cy5-GTP competition)
Design: species or system human
Experimental context: 20 μM; with SOS
Description: The following method was developed as specific assay for the following proteins: KRas wild type, KRas Q61H mutant, KRas G12C mutant, KRas G12D mutant, HRas wild type, Rac-1, and Rho-A. […] The small GTPases proteins: KRas wild type. KRas Q61H mutant, KRas G12C mutant, KRas G12D mutants, HRas wild type, Rac-1, and Rho-A were expressed as His-tagged proteins. In addition, the Guanosine nucleotide Exchange Factor (GEF) Sos protein (residues 556-1049) was expressed as a His-tagged protein. […]
Readout kind: KRas Q61H mutant + SOS: % inh.

Look over these answered cases.
Oc1nc(-c2cn(-c3ccccc3)cn2)nc2c(-c3ccccn3)csc12 [drawing 847] :: A (1-25% inhibition)
COc1cccc(-c2sc3nc(-c4nccn4C)nc(N4CCC(OC)C4)c3c2-c2cscn2)c1 (centres unmarked) [drawing 867] :: D (76-100% inhibition)
COc1ccc(-c2c(-c3cccc(OC)c3F)sc3nc(-c4nccn4C)nc(N4CCC(OC)C4)c23)cc1 (centres unmarked) [drawing 806] :: D (76-100% inhibition)
CO[C@@H]1CCC(Nc2nc(-c3nccn3C)nc3sc(-c4ccn(C)n4)c(-c4ccccc4)c23)C1 (some centres unmarked) [drawing 859] :: C (51-75% inhibition)
Cn1ccc(-c2sc3nc(-c4nccn4C)nc(NCC4CCOC4)c3c2-c2ccccc2)n1 (centres unmarked) [drawing 861] :: C (51-75% inhibition)

Which KRas Q61H mutant + SOS: % inh. is listed for COC1CCN(c2nc(-c3nccn3C)nn3cc(-c4ccccc4)c(-c4ccccc4)c23)C1 (centres unmarked) [drawing 796] ?
B (26-50% inhibition)

// lookup KRas Q61H mutant + SOS: % inh. for COc1cccc(-c2csc3c(O)nc(-c4nccn4C)nc23)c1Cl [drawing 878]
A (1-25% inhibition)

So what's the measured KRas Q61H mutant + SOS: % inh. for this one? O=C(c1nc(-c2ccccn2)nc(O)c1O)N1CCc2ccccc2C1 [drawing 832]
B (26-50% inhibition)
